# target_under_test: Nucleoprotein (Human respiratory syncytial virus A (strain A2))
# Sequence (P03418 whole entry): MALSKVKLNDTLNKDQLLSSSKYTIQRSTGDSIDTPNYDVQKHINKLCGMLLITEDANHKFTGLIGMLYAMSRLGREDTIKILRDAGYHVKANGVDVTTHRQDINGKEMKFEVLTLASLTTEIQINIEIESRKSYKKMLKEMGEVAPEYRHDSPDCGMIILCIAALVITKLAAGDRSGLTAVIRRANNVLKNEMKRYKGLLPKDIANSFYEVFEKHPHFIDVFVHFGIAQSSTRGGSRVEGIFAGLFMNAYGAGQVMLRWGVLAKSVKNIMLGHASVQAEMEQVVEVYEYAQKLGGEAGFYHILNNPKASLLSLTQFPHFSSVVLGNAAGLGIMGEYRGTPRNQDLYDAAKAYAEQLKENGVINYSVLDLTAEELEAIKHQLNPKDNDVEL
# assay_procedure: Not found
observed_property: pEC50
Please express pEC50 as -log10 of the molar concentration.

Worked examples follow.
CN(C(=O)OC(C)(C)C)C1COc2c(C(=O)N[C@H]3N=C(c4ccccc4)c4cccc(F)c4NC3=O)c(-c3ccccc3F)nn2C1 (stereo not given in full) [US20230270751, Example 107] ... 7.03
O=C(N[C@H]1N=C(c2ccccc2)c2cccc(F)c2NC1=O)c1c(-c2ccccc2F)nn2c1OCC(C1CC1)C2 (stereo not given in full) [US20230270751, Example 13] ... 7.55
O=C(N[C@H]1N=C(c2ccccc2)c2cccc(F)c2NC1=O)c1c(-c2ccccc2F)nn2c1OCC(CN1CCCC1)C2 (stereo not given in full) [US20230270751, Example 182] ... 7.11
O=C(N[C@H]1N=C(c2ccccc2)c2cccc(F)c2NC1=O)c1c(-c2ccccc2F)nn2c1OCC(CN1CCOCC1)C2 (stereo not given in full) [US20230270751, Example 173] ... 7.04

Now, please, on to the next compound.
Query: State pEC50 on Nucleoprotein (Human respiratory syncytial virus A (strain A2)). Entry: O=C(N[C@H]1N=C(c2ccccc2)c2cccc(F)c2NC1=O)c1c(-c2c(F)cccc2F)nn2c1OCCC2 [US20230270751, Example 196]
Response: 7.60
